The measured values listed here are drawn from the supplement of paper PMC11316812.

# percentage of EdU-negative values compiled below
- System: MCF7
- protocolText: percentage of EdU-negative (G0-arrested) nuclei per well, 72 h; higher = more G0 arrest;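 also: secreted proteins added to cultured cells, EdU pulse at the end, nuclei found by Hoechst imaging, EdU status from nuclear versus surrounding ring intensity ratio, PBS as neutral control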
- conditions: protein concentration 0.0225 µM; reference: sequence is the full UniProt precursor, the tested protein was the secreted form or ectodomain
observedProperty: percentage of EdU-negative (%)

MMWPMHTPLLLLTALMVAVAGSASAQSRTLAGGIHATDLNDKSVQCALDFAISEYNKVINKDEYYSRPLQVMAAYQQIVGGVNYYFNVKFGRTTCTKSQPNLDNCPFNDQPKLKEEEFCSFQINEVPWEDKISILNYKCRKV; 25.3
MGLEKPQSKLEGGMHPQLIPSVIAVVFILLLSVCFIASCLVTHHNFSRCKRGTGVHKLEHHAKLKCIKEKSELKSAEGSTWNCCPIDWRAFQSNCYFPLTDNKTWAESERNCSGMGAHLMTISTEAEQNFIIQFLDRRLSYFLGLRDENAKGQWRWVDQTPFNPRRVFWHKNEPDNSQGENCVVLVYNQDKWAWNDVPCNFEASRICKIPGTTLN [Q8WXI8]; 23.5
MPMASPQTLVLYLLVLAVTEAWGQEAVIPGCHLHPFNVTVRSDRQGTCQGSHVAQACVGHCESSAFPSRYSVLVASGYRHNITSVSQCCTISGLKKVKVQLQCVGSRREELEIFTARACQCDMCRLSRY [Q96T91]; 24.4
MMCPLWRLLIFLGLLALPLAPHKQPWPGLAQAHRDNKSTLARIIAQGLIKHNAESRIQNIHFGDRLNASAQVAPGLVGWLISGRKHQQQQESSINITNIQLDCGGIQISFHKEWFSANISLEFDLELRPSFDNNIVKMCAHMSIVVEFWLEKDEFGRRDLVIGKCDAEPSSVHVAILTEAIPPKMNQFLYNLKENLQKVLPHMVESQVCPLIGEILGQLDVKLLKSLIEQEAAHEPTHHETSQPSACQAGESPS [Q9BQP9]; 25.2
MVMLLLLLSALAGLFGAAEGQAFHLGKCPNPPVQENFDVNKYLGRWYEIEKIPTTFENGRCIQANYSLMENGKIKVLNQELRADGTVNQIEGEATPVNLTEPAKLEVKFSWFMPSAPYWILATDYENYALVYSCTCIIQLFHVDFAWILARNPNLPPETVDSLKNILTSNNIDVKKMTVTDQVNCPKLS; 24.7
MWVLGIAATFCGLFLLPGFALQIQCYQCEEFQLNNDCSSPEFIVNCTVNVQDMCQKEVMEQSAGIMYRKSCASSAACLIASAGYQSFCSPGKLNSVCISCCNTPLCNGPRPKKRGSSASALRPGLRTTILFLKLALFSAHC [Q8N2G4]; 25.1
MRIMLLFTAILAFSLAQSFGAVCKEPQEEVVPGGGRSKRDPDLYQLLQRLFKSHSSLEGLLKALSQASTDPKESTSPEKRDMHDFFVGLMGKRSVQPDSPTDVNQENVPSFGILKYPPRAE [Q9UHF0]; 22.8
MGCRAASGLLPGVAVVLLLLLQSTQSVYIQYQGFRVQLESMKKLSDLEAQWAPSPRLQAQSLLPAVCHHPALPQDLQPVCASQEASSIFKTLRTIANDDCELCVNVACTGCL; 27.3

====

- Test system: hTERT-HMEC
- protocolText: percentage of EdU-negative (G0-arrested) nuclei per well, 72 h; higher = more G0 arrest
- conditions: protein concentration 0.0225 µM; reference: sequence is the full UniProt precursor, the tested protein was the secreted form or ectodomain
observedProperty: percentage of EdU-negative (%)

MASTSYDYCRVPMEDGDKRCKLLLGIGILVLLIIVILGVPLIIFTIKANSEACRDGLRAVMECRNVTHLLQQELTEAQKGFQDVEAQAATCNHTVMALMASLDAEKAQGQKKVEELEGEITTLNHKLQDASAEVERLRRENQVLSVRIADKKYYPSSQDSSSAAAPQLLIVLLGLSALLQ; 4.74
MLRLYVLVMGVSAFTLQPAAHTGAARSCRFRGRHYKREFRLEGEPVALRCPQVPYWLWASVSPRINLTWHKNDSARTVPGEEETRMWAQDGALWLLPALQEDSGTYVCTTRNASYCDKMSIELRVFENTDAFLPFISYPQILTLSTSGVLVCPDLSEFTRDKTDVKIQWYKDSLLLDKDNEKFLSVRGTTHLLVHDVALEDAGYYRCVLTFAHEGQQYNITRSIELRIKKKKEETIPVIISPLKTISASLGSRLTIPCKVFLGTGTPLTTMLWWTANDTHIESAYPGGRVTEGPRQEYSENNENYIEVPLIFDPVTREDLHMDFKCVVHNTLSFQTLRTTVKEASSTFSWGIVLAPLSLAFLVLGGIWMHRRCKHRTGKADGLTVLWPHHQDFQSYPK; 5.09
MAWMLLLILIMVHPGSCALWVSQPPEIRTLEGSSAFLPCSFNASQGRLAIGSVTWFRDEVVPGKEVRNGTPEFRGRLAPLASSRFLHDHQAELHIRDVRGHDASIYVCRVEVLGLGVGTGNGTRLVVEKEHPQLGAGTVLLLRAGFYAVSFLSVAVGSTVYYQGKCLTWKGPRRQLPAVVPAPLPPPCGSSAHLLPPVPGG; 4.49
